B1: TPR 5TU (parent)
chain: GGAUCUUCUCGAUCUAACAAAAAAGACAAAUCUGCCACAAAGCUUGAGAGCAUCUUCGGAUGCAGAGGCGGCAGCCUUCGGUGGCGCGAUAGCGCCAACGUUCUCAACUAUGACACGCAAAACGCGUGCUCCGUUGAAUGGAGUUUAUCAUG

Variants of: B1
Assay: polymerase ribozyme fitness, log enrichment relative to wild type (log ratio); higher = more active; in vitro selection for triplet polymerase activity
Variants at the floor of the assay were thinned out.
The entries below come with measured polymerase ribozyme fitness (log ratio) values attached.

Sample records with polymerase ribozyme fitness (log ratio):
{"mutation_spec": "U45A U55G U56G C87U G92C", "polymerase ribozyme fitness (log ratio)": -3.98}
{"mutation_spec": "U146C", "polymerase ribozyme fitness (log ratio)": 0.00807}
{"mutation_spec": "G46A U55A G58C G84C", "polymerase ribozyme fitness (log ratio)": -2.84}

Supply polymerase ribozyme fitness (log ratio) value. Item: C10U G65A G92A ≤ -4.2

Supply polymerase ribozyme fitness (log ratio) value. Item: A23U C114U -3.88

Supply polymerase ribozyme fitness (log ratio) value. Item: C54U A121U 0.0158
